Where do these numbers come from? They come from ChEMBL document CHEMBL2440063.

- Assayed Target: Cytohesin-2 (Homo sapiens) (UniProt Q99418)
- Assay Method Text: Binding affinity to human Arno Sec7 domain immobilized on CAP sensor chip at 250 uM by surface plasmon resonance analysis
The source made the active and inactive calls. The rule behind the calls is not given here.
Log the outcome using a class from active, inactive

Smiles Structure	Category
O=C1CNC(=O)N1C12CC3CC(CC(C3)C1)C2	active
CCN(CC)Cc1cc(NC(C)=O)ccc1O	active

With those in mind, consider the next molecule.
Query: Please indicate how the test categorized Cc1cc(O)cc(C)c1NS(=O)(=O)c1ccccc1 .
Result: active

----------
- Assayed Target: Cytohesin-2 (Homo sapiens)
- Sequence (whole entry): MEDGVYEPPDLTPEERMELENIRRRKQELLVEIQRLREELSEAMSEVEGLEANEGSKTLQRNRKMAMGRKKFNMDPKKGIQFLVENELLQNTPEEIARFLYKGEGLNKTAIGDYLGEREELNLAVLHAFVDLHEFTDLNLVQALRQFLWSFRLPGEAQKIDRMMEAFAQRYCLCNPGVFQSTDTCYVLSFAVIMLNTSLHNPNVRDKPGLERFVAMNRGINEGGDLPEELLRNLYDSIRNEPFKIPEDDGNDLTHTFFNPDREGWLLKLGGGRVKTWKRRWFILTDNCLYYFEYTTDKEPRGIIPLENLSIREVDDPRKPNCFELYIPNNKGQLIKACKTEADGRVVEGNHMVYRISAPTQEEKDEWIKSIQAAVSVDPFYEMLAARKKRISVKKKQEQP
- Assay Method Text: Inhibition of human Arno Sec7 domain-mediated nucleotide exchange in delta17 Arf1 (17 to 181) at 1 mM by BODIPY-GTP based time resolved fluorescence assay relative to control
Recorded Metric: inhibition
Field: value (include unit after the number)

For orientation, consider the following solved cases.
Smiles Structure	Assayed Target	inhibition
COc1ccc(S(=O)(=O)Nc2c(C)cc(O)cc2C)cc1	Cytohesin-2 (Homo sapiens)	32.1%
Cc1ccc(S(=O)(=O)Nc2c(C)cc(O)cc2C)cc1	Cytohesin-2 (Homo sapiens)	32.7%
Cc1cc(C)c(S(=O)(=O)Nc2ccc(O)cc2C)c(C)c1	Cytohesin-2 (Homo sapiens)	51.5%
Cc1ccc(S(=O)(=O)Nc2cc(C)c(O)cc2C)cc1	Cytohesin-2 (Homo sapiens)	66.7%
Cc1cc(O)cc(C)c1NS(=O)(=O)c1ccc([N+](=O)[O-])cc1	Cytohesin-2 (Homo sapiens)	58.4%

Query: For the compound O=S(=O)(Nc1ccccc1O)c1ccccc1 , what inhibition is on record?
Result: 21.6%

----------
- Assayed Target: Cytohesin-2 (Homo sapiens) (UniProt Q99418)
- Sequence (whole entry): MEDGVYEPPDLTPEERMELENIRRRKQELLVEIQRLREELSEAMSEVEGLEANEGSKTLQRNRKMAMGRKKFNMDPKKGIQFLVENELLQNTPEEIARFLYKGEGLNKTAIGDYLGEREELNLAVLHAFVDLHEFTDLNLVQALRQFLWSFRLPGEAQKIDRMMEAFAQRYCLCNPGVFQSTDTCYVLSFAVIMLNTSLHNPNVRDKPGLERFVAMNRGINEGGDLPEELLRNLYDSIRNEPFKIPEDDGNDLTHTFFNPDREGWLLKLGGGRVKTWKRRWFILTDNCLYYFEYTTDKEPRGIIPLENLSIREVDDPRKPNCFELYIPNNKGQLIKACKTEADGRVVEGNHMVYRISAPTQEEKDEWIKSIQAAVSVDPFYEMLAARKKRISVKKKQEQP
- Assay Method Text: Binding affinity to human Arno Sec7 domain immobilized on CAP sensor chip at 1 mM after 15 mins by […]
The source made the active and inactive calls. The rule behind the calls is not given here.
Outcome (select one): Yes (active), No (inactive)

Smiles Structure	Category
Cc1c(C(N)=O)sc(N)c1C(=O)OC(C)C	Yes
COc1cc(C(=O)Nc2c(C)cc(O)cc2C)cc(OC)c1OC	Yes
Cc1ccc(C)c(-c2csc(N)n2)c1	Yes
Cc1cc(O)ccc1NS(=O)(=O)c1cccs1	Yes
O=C1CNC(=O)N1C12CC3CC(CC(C3)C1)C2	No

Query: Hey, what did the test say about Cc1cc(O)cc(C)c1NS(=O)(=O)c1ccccc1 ?
Result: Yes

Query: Per the assay record, what outcome was assigned to Cc1cc(O)cc(C)c1NC(=O)c1cccc([N+](=O)[O-])c1 ?
Result: Yes

Query: What call does the record list for O=S(=O)(Nc1ccccc1O)c1ccccc1 ?
Result: No

Query: Assay outcome for Cc1cc(O)cc(C)c1NS(=O)(=O)c1ccc([N+](=O)[O-])cc1 : what was it?
Result: Yes

Query: Kindly provide the recorded test outcome for the following compound: CCN(CC)Cc1cc(NC(C)=O)ccc1O
Result: No

----------
- Assayed Target: UniProtKB Q99418
- Assay Method Text: Inhibition of human Arno Sec7 domain-mediated nucleotide exchange in delta17 Arf1 (17 to 181) by BODIPY-GTP based time resolved fluorescence assay
- Experimental Setup: read-out: Ki(app)
# label = 1 (yes) if Ki < 2000 µM else 0 (no)

Recorded results for 5 compounds are shown here.
Smiles Structure	Assayed Target	Category
COc1ccc(S(=O)(=O)Nc2c(C)cc(O)cc2C)cc1	UniProtKB Q99418	1 (yes)
Cc1cc(O)cc(C)c1NS(=O)(=O)c1ccc([N+](=O)[O-])cc1	UniProtKB Q99418	1 (yes)
Cc1cc(NS(=O)(=O)c2ccccc2)cc(C)c1O	UniProtKB Q99418	0 (no)
Cc1cc(C)c(S(=O)(=O)Nc2ccc(O)cc2C)c(C)c1	UniProtKB Q99418	1 (yes)
Cc1cc(O)cc(C)c1NS(=O)(=O)c1ccccc1	UniProtKB Q99418	0 (no)

Okay, next one:
Query: Input Cc1ccc(S(=O)(=O)Nc2c(C)cc(O)cc2C)cc1 ; condition: Ki strictly below 2000 µM. Does it hold?
Result: 1 (yes)

----------
# reported inhibition; entries follow
- Assayed Target: UniProtKB Q99418
- Assay Method Text: Inhibition of human Arno Sec7 domain-mediated nucleotide exchange in delta17 Arf1 (17 to 181) at 2 mM by BODIPY-GTP based time resolved fluorescence assay relative to control
Please answer using the number first and the unit second.

In the examples that follow, each entry is paired with its recorded inhibition.
Smiles Structure	inhibition
Cc1c(C(N)=O)sc(N)c1C(=O)OC(C)C	37.9%
Cc1ccc(C)c(-c2csc(N)n2)c1	22.6%
Cc1cc(NS(=O)(=O)c2ccccc2)cc(C)c1O	31.2%
Cc1cc(O)ccc1NS(=O)(=O)c1cccs1	16.4%
Cc1c(O)ccc(NS(=O)(=O)c2ccccc2)c1C	24.2%

Query: Bench note: what inhibition did Cc1cc(O)cc(C)c1NC(=O)c1cccc([N+](=O)[O-])c1 show?
Result: 16%

Query: Can you look up the measured inhibition of Cc1cc(O)cc(C)c1NS(=O)(=O)c1ccccc1 for me?
Result: 34.6%

Query: Suppose we examine the molecule COc1cc(C(=O)Nc2c(C)cc(O)cc2C)cc(OC)c1OC ; what inhibition value has been reported?
Result: 9.9%

----------
- Assayed Target: Cytohesin-2 (Homo sapiens)
Recorded Metric: Kd (µM)
Kindly answer with a numeric value in µM, unit omitted.

Query: Data request, read-out Kd, for Cc1cc(O)cc(C)c1NS(=O)(=O)c1ccccc1
Result: 500

----------
- Assayed Target: Cytohesin-2 (Homo sapiens) (UniProt Q99418)
- Assay Method Text: Binding affinity to human Arno Sec7 domain immobilized on CAP sensor chip at 250 uM by surface plasmon resonance analysis
Calls of active or inactive are those of the source. No cut-off for these calls is given here.
Allowed answers: true (1) for active, false (0) for inactive

Please review the following examples before continuing.
Smiles Structure	Category
Cc1c(C(N)=O)sc(N)c1C(=O)OC(C)C	false (0)
Cc1ccc(C)c(-c2csc(N)n2)c1	true (1)

Then there is this compound:
Query: recorded result category for Cc1cc(O)ccc1NS(=O)(=O)c1cccs1 in this test
Result: true (1)
